Origin of values: PubChem BioAssay

# measurement.protocol: S. cerevisiae growth modulation with rapamycin, primary screen, strain BY4716, OD600, 96 h (AID 1091); also: test concentration not given here
# experimental.setup: higher = more signal, called active from +8 up or from −8 down
Threshold rule: z-score greater than or equal to -0.7 is label 1; below that, label 0.

Exam item: decide whether the reported z-score for COC(=O)C[C@H]1O[C@]2(C(=O)N(C)c3ccccc32)[C@@H](C)[C@@H]1[Si](C)(C)c1ccc(OC)cc1 is at least -0.7. label 0

Does the compound CCCCCCc1nc(-c2cc(C)c(OC)c(C)c2)cc2c1[Si](C(C)C)(C(C)C)O[C@H]2c1ccccc1 have recorded z-score that is -0.7 or more? label 1

Reported z-score at or above -0.7? Cc1ccc(S[C@]2(C(=O)O)CC(=O)N(Cc3cc(C(F)(F)F)cc(C(F)(F)F)c3)[C@@H]2c2ccc(CO)cc2I)cc1 label 1

z-score >= -0.7 for CC(C)C[C@@H]1NC(=O)[C@H](CC(C)C)NC(=O)[C@@]23C(=O)N[C@@H](Cc4ccccc4)C2[C@H](C)[C@@]2(C)O[C@H]2C3/C=C/CC/C=C/CNC1=O (some centres not stated) ? label 0

hey, is z-score for this one >= -0.7? COc1ccc(C(=O)Nc2ccc(CN3C(=O)[C@]4(O[C@H](CCn5cc(CCO)nn5)[C@@H]([Si](C)(C)c5ccc(OC)cc5)[C@@H]4C)c4ccccc43)cc2)cc1 label 1

* * *

# measurement.protocol: CREB reporter modulators under forskolin, primary screen, cell-based, PC12, CRE-LacZ reporter, forskolin-stimulated (AID 1146);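 also: PC12 cells with 6xCRE LacZ reporter stimulated by forskolin 10 µM; beta-galactosidase reporter signal reflecting CREB driven transcription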
# experimental.setup: luminescence, 4.5 h, higher = more signal, called active from +8 up or from −8 down
measured.endpoint: z-score
Lab note: jot down the number only; don't add units.

// returns reported z-score for input Cc1ccc(S[C@]2(C(=O)NC(C)C)CC(=O)N(C3Cc4ccccc4C3)[C@@H]2c2ccc(CO)cc2)cc1 0.978

Record request: z-score value, item Cc1ccc(S[C@]2(C(=O)NCCCN(C)C)CC(=O)N(C3CCCCC3)[C@@H]2c2ccc(CO)cc2I)cc1 1.42

Value lookup for z-score; key = O=C1C[C@@](C(=O)NCCN2CCOCC2)(c2ccc([N+](=O)[O-])cc2)[C@@H](c2ccc(CO)cc2)N1C1CCCCC1 -0.303

Would you mind telling me what z-score value was observed for COC(=O)[C@@]1(Cc2ccccc2)[C@H]2c3cc(C(=O)N4CCCC4)n(CCN4CNCC4=O)c3C[C@H]2CN1C(=O)c1ccccc1 ? -0.768

z-score lookup needed for COC(=O)[C@H]1[C@@H]2COc3ccccc3[C@H]2N[C@H]1C(=O)OC , thanks. -0.827

Entry O=C(CS)NCCCCCCNC(=O)[C@@H]1C[C@@H]2C(=O)N[C@@H](Cc3ccccc3)C(=O)N2[C@@H]1c1ccc(O)cc1 : reported z-score = ? -0.835

# get_value(readout='z-score', item= COc1ccc([Si](C)(C)[C@H]2[C@H](CCO)O[C@@]3(C(=O)N(Cc4ccc(N5CCCCC5=O)cc4)c4ccccc43)[C@@H]2C)cc1 ) -2.57

* * *

# assay.system: Neurogenic locus notch homolog protein 2 (Homo sapiens)
# measurement.protocol: Notch2 binders on small-molecule microarrays, primary screen, biochemical, small-molecule microarray, 635 nm fluorescence, stem cell growth factors (AID 1073)
# experimental.setup: Notch2 binding, higher = more signal
Quick rule for you: composite z-score at 0.3 or higher means Yes, lower means No.

Please tell me: is the compound CO[C@H]1COC(=O)[C@H](C)COC(=O)[C@H](Cc2ccccc2)NC(=O)CC=C[C@H]1C at or over 0.3 in terms of composite z-score? No

hey, is composite z-score for this one >= 0.3? COc1ccc(-c2cc3c(c(-c4ccccc4)n2)[Si](C(C)C)(C(C)C)O[C@H]3c2ccccc2)cn1 No

Hello, I need to know if CCCN1C(=O)[C@@]2(CCS(=O)(=O)c3ccccc3)N=C(c3ccc(OCCCO)cc3)O[C@H]2c2ccccc21 has measured composite z-score not below 0.3. Thanks! Yes

Reported composite z-score reaches at least 0.3 for CO[C@@H]1COC(=O)[C@H](C)NC(=O)CC=C[C@@H](C)[C@H](OC)COC(=O)[C@H](C)NC(=O)CC=C[C@H]1C ? No

Hi, just wondering whether C=CCNC(=O)[C@H]1[C@@H]2C(=O)O[C@@H](c3ccccc3)[C@@H](c3ccccc3)N2[C@@H](c2ccccc2OCCO)[C@]12C(=O)N(C(=O)OCCOC)c1ccc(C#CCNC(N)=O)cc12 shows composite z-score of 0.3 or higher. No

# bool: composite z-score of CC/C=C/C(=O)N(C[C@@H]1CCCO1)[C@@H]1CC(C(=O)NCCO)=C[C@H](Oc2c(I)cc(CO)cc2OC)[C@H]1O >= 0.3 Yes

# bool: composite z-score of COCCOC(=O)N1C(=O)[C@@]2(c3cc(C#CC4=CCCCC4)ccc31)[C@H](C(=O)NC[C@H](O)c1ccccc1)[C@H]1C(=O)O[C@H](c3ccccc3)[C@H](c3ccccc3)N1[C@@H]2c1ccc(OCCO)cc1 >= 0.3 Yes

Evaluate COc1ccc(-c2ccccc2[C@@H]2N[C@H](C(=O)O)CC[C@H]2C)cc1 : composite z-score at minimum 0.3? No
